Source: patent US20200283478A1

assay-system: T1, His-tagged, full-length PCSK9 (human, UniProt Q8NBP7 31-692)
T1 construct: The secreted protein is autocleaved into a prodomain and a catalytic/Cys-rich chain that starts at S153; also called His-PCSK9
T1 sequence (Q8NBP7 other isoform, or with tags, fused parts or gaps limits assumed): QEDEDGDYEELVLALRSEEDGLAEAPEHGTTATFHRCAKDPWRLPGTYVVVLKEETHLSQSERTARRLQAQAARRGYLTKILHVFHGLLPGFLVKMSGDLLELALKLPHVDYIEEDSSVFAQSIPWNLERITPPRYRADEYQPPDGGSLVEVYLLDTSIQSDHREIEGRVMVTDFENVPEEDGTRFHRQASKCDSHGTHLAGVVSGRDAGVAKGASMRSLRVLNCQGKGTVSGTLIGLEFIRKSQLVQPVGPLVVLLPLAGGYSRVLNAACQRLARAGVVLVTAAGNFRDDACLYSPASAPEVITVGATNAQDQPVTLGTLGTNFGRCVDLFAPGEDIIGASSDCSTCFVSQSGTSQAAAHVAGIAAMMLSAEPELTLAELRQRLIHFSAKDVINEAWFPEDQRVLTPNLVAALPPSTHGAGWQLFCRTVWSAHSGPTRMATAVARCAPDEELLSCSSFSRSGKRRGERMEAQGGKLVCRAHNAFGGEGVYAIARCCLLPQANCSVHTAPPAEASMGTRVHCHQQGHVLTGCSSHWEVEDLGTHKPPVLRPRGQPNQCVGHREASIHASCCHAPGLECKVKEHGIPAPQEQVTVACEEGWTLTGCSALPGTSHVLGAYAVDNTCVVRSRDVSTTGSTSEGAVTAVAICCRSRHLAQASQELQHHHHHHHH
protocol-description: TR-FRET competition; His-PCSK9, competitor EGF(A)-Fc
pIC50: −log10 of the molar value. Square brackets hold non-standard residues; d marks the D form. Ends that are not written are not given here. hArg = N=C(N)NCCCC[C@H](N)C(=O)O
measured-endpoint: pIC50

{"binder": "WNLV[hArg]IGLLR (also: end groups and other groups only in drawing, Structure printed only as a drawing) [Compound 194]", "value-prefix": "≤", "reading": 4.30}
{"binder": "WNLVRIGLTR (also: further groups not given here, Structure printed only as a drawing) [Compound 189]", "value-prefix": "=", "reading": 4.42}
{"binder": "WNLV[hArg]IGLLR (also: end groups and other groups only in drawing, Structure printed only as a drawing) [Compound 203]", "value-prefix": "=", "reading": 4.68}
{"binder": "WNLV[hArg]IGLLR (also: further groups not given here, Structure printed only as a drawing) [Compound 217]", "value-prefix": "=", "reading": 5.39}
{"binder": "WNLVRIGLLR (also: further groups not given here, Structure printed only as a drawing) [Compound 139]", "value-prefix": "≤", "reading": 4.30}
{"binder": "Ac-ESYPGWNLV[hArg]IGLLR-NH2 (SMILES CC[C@H](C)[C@H](NC(=O)[C@H](CCCCNC(=N)N)NC(=O)[C@@H](NC(=O)[C@H](CC(C)C)NC(=O)[C@H](CC(N)=O)NC(=O)[C@H](Cc1c[nH]c2ccccc12)NC(=O)CNC(=O)[C@@H]1CCCN1C(=O)[C@H](Cc1ccc(O)cc1)NC(=O)[C@H](CO)NC(=O)[C@H](CCC(=O)O)NC(C)=O)C(C)C)C(=O)NCC(=O)N[C@@H](CC(C)C)C(=O)N[C@@H](CC(C)C)C(=O)N[C@@H](CCCNC(=N)N)C(N)=O) [Compound 231]", "value-prefix": "=", "reading": 5.80}
